Target: human RORγ ligand binding domain (GST-hRORγ-LBD) (Homo sapiens (Human), UniProt P51449)
Sequence (P51449 269-508): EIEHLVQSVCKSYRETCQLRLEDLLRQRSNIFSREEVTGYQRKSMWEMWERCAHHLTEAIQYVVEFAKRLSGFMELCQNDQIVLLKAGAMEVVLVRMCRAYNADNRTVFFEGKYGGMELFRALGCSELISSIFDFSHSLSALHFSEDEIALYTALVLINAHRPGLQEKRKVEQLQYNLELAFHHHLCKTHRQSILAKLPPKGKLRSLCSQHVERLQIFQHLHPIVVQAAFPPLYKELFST
Assay: TR-FRET assay (biochemical cofactor interaction assay, GST-hRORγ-LBD / TRAP220 peptide)
From the text: RORγ is an orphan member of the nuclear receptor (NR) family displaying constitutive activity. The activity of nuclear receptors can be modulated by ligand-induced cofactor protein interactions. For example, agonist binding leads to recruitment of coactivator protein, and antagonist binding either blocks coactivator interaction or facilitates the recruitment of corepressors. […] The conformational change induced by ligand binding influences interactions with LXXLL motif peptides. […]
pIC50: −log10 of the molar value.
REPORTED PROPERTY: pIC50

Answered cases to consult:
CCOc1ccc(C2c3nnnn3CCN2Cc2ccc(F)cc2)cc1 (centres unmarked) [Compound 134] ... 5.00 to 6.00
Fc1ccc(C2c3nnnn3CCN2Cc2cccc(Br)c2)cc1 (single isomer, unassigned) [Compound 96-b] ... 4.40 to 5.00
CC(C)c1nn(-c2ccccc2)cc1C1c2nnnn2CCN1Cc1cccs1 (single isomer, unassigned) [Compound 61-a] ... 6.00 to 8.00

pIC50 measured on Cc1cccc(CN2CCn3nnnc3C2c2ccc(F)cc2)c1 (single isomer, unassigned) [Compound 93-b] = 4.40 to 5.00

###

Each entry below carries its recorded pIC50.
Molecular target: human RORγ ligand binding domain (GST-hRORγ-LBD) (Homo sapiens (Human), UniProt P51449)
Experiment: TR-FRET assay (biochemical cofactor interaction assay, GST-hRORγ-LBD / TRAP220 peptide)
From the text: RORγ is an orphan member of the nuclear receptor (NR) family displaying constitutive activity. The activity of nuclear receptors can be modulated by ligand-induced cofactor protein interactions. For example, agonist binding leads to recruitment of coactivator protein, and antagonist binding either blocks coactivator interaction or facilitates the recruitment of corepressors. […] The conformational change induced by ligand binding influences interactions with LXXLL motif peptides. […]
pIC50: −log10 of the molar value.

Reading of pIC50 for Cc1cccc(CN2CCn3nnnc3C2c2ccc(OC(C)C)cc2)c1 (stereo not drawn) with human RORγ ligand binding domain (GST-hRORγ-LBD) (Homo sapiens (Human), UniProt P51449): 6.00 to 8.00

# lookup: CCn1cc(CN2CCn3nnnc3C2c2cn(-c3ccccc3)nc2C(C)C)cn1 (stereo not drawn) on human RORγ ligand binding domain (GST-hRORγ-LBD) (Homo sapiens (Human), UniProt P51449), pIC50 = 4.40 to 5.00

Observed pIC50 on human RORγ ligand binding domain (GST-hRORγ-LBD) (Homo sapiens (Human), UniProt P51449), entry CC(C)c1nn(-c2ccccc2)cc1CN1CCn2nnnc2C1c1cn(-c2ccccc2)nc1C(C)C (stereo not drawn) , equals 4.40 to 5.00

###

# key: entry, value: IC50
molecular target: human RORγ ligand binding domain (GST-hRORγ-LBD) (Homo sapiens (Human), UniProt P51449); test: TR-FRET assay (biochemical cofactor interaction assay, GST-hRORγ-LBD / TRAP220 peptide)

As a guide, the following entries are already answered.
CCOc1ccc(C2c3nnnn3CCN2Cc2cn(-c3ccccc3)nc2C(C)C)cc1 (stereo not shown) [Compound 43] ... 9.9 to 40 µM
COc1ccc(OC)c(C2c3nnnn3CCN2Cc2ccc(F)cc2)c1 (stereo not shown) [Compound 128] ... 0.99 to 9.9 µM
Cc1cccc(CN2CCn3nnnc3C2c2ccncc2)c1 (stereo not shown) [Compound 87] ... 9.9 to 40 µM

compound CC(C)Oc1ccc(C2c3nnnn3CCN2Cc2ccc3c(c2)OCO3)cc1 (stereo not shown) [Compound 131] , IC50 observed: 0.99 to 9.9 µM
